Data provenance: patent US20200347130A1

Item-by-item account of pKd
Target: T1, CD96 extracellular region with His tag (CD96-His) (human, UniProt P40200 22-519)
T1 construct: also called CD96-ECD-His; Bio-CD96-His (biotin-labelled form)
T1 sequence: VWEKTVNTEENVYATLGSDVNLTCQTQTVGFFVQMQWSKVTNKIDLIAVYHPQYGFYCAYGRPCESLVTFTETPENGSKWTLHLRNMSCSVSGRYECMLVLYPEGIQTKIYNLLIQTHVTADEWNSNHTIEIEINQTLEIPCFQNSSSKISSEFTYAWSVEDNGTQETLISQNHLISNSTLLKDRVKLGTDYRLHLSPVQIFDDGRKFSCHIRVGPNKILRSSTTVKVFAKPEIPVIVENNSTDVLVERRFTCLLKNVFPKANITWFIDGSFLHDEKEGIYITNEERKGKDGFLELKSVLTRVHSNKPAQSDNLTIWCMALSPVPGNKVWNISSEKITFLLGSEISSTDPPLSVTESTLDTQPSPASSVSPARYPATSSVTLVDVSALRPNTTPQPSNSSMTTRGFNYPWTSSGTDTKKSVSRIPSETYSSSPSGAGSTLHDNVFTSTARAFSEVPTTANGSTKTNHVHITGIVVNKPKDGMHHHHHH
Experiment: SPR (Biacore), antibody captured, CD96-ECD-His as mobile phase
Scale for pKd: -log10 of concentration given in mol/L; no unit attached.

Guide cases for pKd, answers given:
binder	testReadout	reading
h1722-007 (antibody, V domains shown, Only variable regions are tied to this name) VH: EVQLVQSGAEVKKPGSSVKVSCKASGGTFSDYWMHWVKQAPGQGLEWIGMLHPNSGTTSFNEKFKIRVTITIDKSTSTAYMELSSLRSEDTAVYYCASDYSGPFAYWGQGTLVTVSS VL: DIQMTQSPSSLSASVGDRVTITCSASSSVNYIHWYQQKPGKAPKRWIYDTSKLASGVPSRFSGSGSGTDFTLTISSLQPEDFATYYCQQWRSNPLTFGQGTKLEIK	pKd	8.88
h1719-006 (antibody, V domains shown, also called M719-006) VH: EVTLKESGPVLVKPTETLTLTCTVSGFSLSSYGVSWVRQPPGKGLEWLGVIWGDGNTNYHSVLISRLTISKDTSKSQVVLTLTNMDPVDTATYYCAKNNYYGSRYGYPMDYWGQGTTVTVSS VL: DIQMTQSPSSVSASVGDRVTITCKATQDVGTAVAWYQQKPGKSPKLLIYWASTRHTGVPERFSGSGSGTDFTLTISSLQPEDFATYFCQQYGSSVLTFGGGTKVEIK	pKd	7.88
h1721-005 (antibody, V domains shown, Only variable regions are tied to this name) VH: EVTLKESGPVLVKPTETLTLTCTVSGFSLSSYGVNWIRQPPGKALEWLAVIWGDGSTNYHSALISRLTISKDTSKSQVVLTMTNMDPVDTATYYCARNYFYGSRYGYAMDSWGQGTTVTVSS VL: DIQMTQSPSSLSASVGDRVTITCRASENIYSSLAWYQQKPGKAPKLLVYNAKTLIEGVPSRFSGSGSGTDYTLTISSLQPEDFATYYCQHHYGTPYTFGGGTKVEIK	pKd	8.65
h1719-010 (antibody, V domains shown, Only variable regions are tied to this name) VH: EVTLKESGPVLVKPTETLTLTCTVSGFSLSSYGVSWVRQPPGKGLEWLGVIWGDGNTNYHSVLISRLTISKDTSKSQVVLTLTNMDPVDTATYYCAKQNYYGSRYGYPIDYWGQGTTVTVSS VL: DIQMTQSPSSVSASVGDRVTITCKATQDVGTAVAWYQQKPGKAPKLLIYWASTRHTGVPSRFSGSGSGTDFTLTISSLQPEDFATYYCQQYGSSVLTFGGGTKVEIK	pKd	6.33

Switching to the query record.
Entry h1722-006 (antibody, V domains shown, Only variable regions are tied to this name) VH: EVQLVQSGAEVKKPGSSVKVSCKASGGTFSDYWMHWVRQAPGQGLEWIGMLHPNSGTTSFNEKFKIRVTITADKSTSTAYMELSSLRSEDTAVYYCASDYSGPFAYWGQGTLVTVSS VL: DIQMTQSPSSLSASVGDRVTITCSASSSVNYIHWYQQKPGKAPKRWIYDTSKLASGVPSRFSGSGSGTDFTLTISSLQPEDFATYYCQQWRSNPLTFGQGTKLEIK ; pKd = 8.92
